Measured values drawn from PubChem BioAssay (Tox21) for this set.

- protocol-text: qHTS assay to identify small molecule antagonists of the progesterone receptor (PR) signaling pathway - cell viability counter screen (AID 1346798); note: nearly all actives have a fitted effect of over 50% in size
- test-conditions: PR-UAS-bla HEK293T viability, CellTiter-Glo luminescence, 16 h; series mostly up to 92.4 µM
Results filed as inconclusive are left out. Active and inactive are the calls of the source. Calls come from the whole dose curve; as a rule, active = well fitted cell-killing curve with a large enough effect in the repeat runs; inconclusive = weak or mixed curves, or effect the other way; inactive = no such curve, though single readings can be large or run the other way.
Outcomes: YES (active), NO (inactive)

compound-smiles: CC(C)=CCN1CC[C@@]2(C)c3cc(O)ccc3C[C@@H]1[C@@H]2C
category-label: NO
--
compound-smiles: COc1ccc2[nH]cc(CCN(C(C)C)C(C)C)c2c1
category-label: NO
--
compound-smiles: Nc1ccc(Cl)cc1C(=O)c1ccccc1F
category-label: NO
--
compound-smiles: C#CCO
category-label: NO
--
compound-smiles: CCCCON=O
category-label: NO
--
compound-smiles: C[C@]12C/C(=C/O)C(=O)C[C@@H]1CC[C@@H]1[C@@H]2CC[C@@]2(C)[C@H]1CC[C@]2(C)O
category-label: YES
--
compound-smiles: Clc1ccc(C(Cl)(Cl)Cl)cc1Cl
category-label: NO
